Source of measurements: the supplement of paper PMC10567573

Reported protein stability index by item:
B1: NR2F2 (parent)
chain: NIPFFPDLQITDQVALLRLTWSEL

variants of: B1; test: protein stability index of a GFP-peptide fusion (GPS, HEK-293T) (PSI 1-6); higher = more stable; details: c terminus: a fixed tail appended;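 further: lentivirally expressed fusions sorted by FACS into six bins by GFP to DsRed ratio, PSI derived from sequencing read proportions per bin multiplied by bin number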
No unit in the answer, please; the number alone is enough.

Recorded protein stability index, per entry:
input: Quick one: protein stability index for L24F ?
output: 1.99

input: What protein stability index value was documented for this variant, D7K ?
output: 2.03

Turning to the following variant.
input: I would be grateful if you could share the reported protein stability index for I2T .
output: 2.01
